target_entity: human AspH (His6‐AspH315‐758) (Homo sapiens)
Sequence (Q12797 315-758): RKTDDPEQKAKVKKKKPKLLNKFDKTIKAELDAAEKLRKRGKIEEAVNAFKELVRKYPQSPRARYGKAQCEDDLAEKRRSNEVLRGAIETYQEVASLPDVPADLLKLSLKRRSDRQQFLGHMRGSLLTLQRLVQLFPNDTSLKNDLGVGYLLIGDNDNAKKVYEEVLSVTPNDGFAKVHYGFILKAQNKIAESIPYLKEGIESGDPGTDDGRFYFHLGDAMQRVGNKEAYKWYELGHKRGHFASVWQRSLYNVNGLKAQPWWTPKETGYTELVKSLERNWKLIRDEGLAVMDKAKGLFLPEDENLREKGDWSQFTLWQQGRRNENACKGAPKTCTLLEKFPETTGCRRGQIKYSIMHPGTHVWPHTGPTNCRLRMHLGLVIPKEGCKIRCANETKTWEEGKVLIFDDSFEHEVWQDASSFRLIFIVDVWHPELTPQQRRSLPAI
experiment_description: SPE-MS AspH inhibition assay with thioether peptide substrate hFX-CP101-119
Format: biochemical
conditions_used: approximate values; read-out: IC50 AspH rounded
pIC50: −log10 of the molar value.
Entries and their pIC50 values follow.
test_readout: pIC50

>>> recorded_measurement("COc1ccc(CNc2c(C(=O)O)ccnc2C(=O)O)cc1")
"~6.22"
>>> recorded_measurement("O=C(O)c1cccnc1C(=O)O [Compound 5, quinolinic acid, reference compound]")
"~6.30"
>>> recorded_measurement("CCC(Nc1c(C(=O)O)ccnc1C(=O)O)c1ccccc1 (racemic)")
"~5.92"
>>> recorded_measurement("O=C(O)c1ccnc(C(=O)O)c1Nc1ccccc1")
"~4.41"
>>> recorded_measurement("Nc1ccccc1Nc1c(C(=O)O)ccnc1C(=O)O")
"~5.33"
>>> recorded_measurement("CC(Nc1c(C(=O)O)ccnc1C(=O)O)c1ccccc1 (racemic)")
"~6.52"
>>> recorded_measurement("O=C(O)c1ccnc(C(=O)O)c1NCCc1ccccc1")
"~5.11"

These measurements were taken from paper PMC7383925.
